Origin of measurements: patent US20250320281A1

Here, each record is paired with measured IC50 (µg/mL), pseudovirus neutralization data.
- studyTarget: HIV-1 Env of isolate VLGCA1 (pseudovirus) (HIV-1)
- assayExplanation: cell-based or functional assay

1. PGT-123 (4858_P08) (antibody, V domains shown) VH: QLHLQESGPGLVKPPETLSLTCSVSGASINDAYWSWIRQSPGKRPEWVGYVHHSGDTNYNPSLKRRVTFSLDTAKNEVSLKLVDLTAADSATYFCARALHGKRIYGIVALGELFTYFYMDVWGKGTAVTVSS VL: SSMSVSPGETAKISCGKESIGSRAVQWYQQKPGQPPSLIIYNNQDRPAGVPERFSASPDFRPGTTATLTITNVDAEDEADYYCHIYDARGGTNWVFDRGTTLTVL : > 50 µg/mL
2. PGT-126 (5141_B17) (antibody, V domains shown) VH: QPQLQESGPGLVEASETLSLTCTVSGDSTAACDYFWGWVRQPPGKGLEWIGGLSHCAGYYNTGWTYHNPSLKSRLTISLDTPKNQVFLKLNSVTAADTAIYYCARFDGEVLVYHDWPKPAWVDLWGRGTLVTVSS VL: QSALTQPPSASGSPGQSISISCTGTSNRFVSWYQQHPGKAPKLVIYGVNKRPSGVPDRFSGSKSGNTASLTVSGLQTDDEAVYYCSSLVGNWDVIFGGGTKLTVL : > 50 µg/mL
3. PGT-125 (5123_A06) (antibody, V domains shown) VH: QSQLQESGPRLVEASETLSLTCNVSGESTGACTYFWGWVRQAPGKGLEWIGSLSHCQSFWGSGWTFHNPSLKSRLTISLDTPKNQVFLKLTSLTAADTATYYCARFDGEVLVYNHWPKPAWVDLWGRGIPVTVSS VL: QSALTQPPSASGSPGQSITISCNGTATNFVSWYQQFPDKAPKLIIFGVDKRPPGVPDRFSGSRSGTTASLTVSRLQTDDEAVYYCGSLVGNWDVIFGGGTTLTVL : 0.078 µg/mL

Here is the next item to consider.
Q: # get_value(readout='IC50 (µg/mL), pseudovirus neutralization', item= PGT-127 (5145_B14) (antibody, V domains shown) VH: QPQLQESGPGLVEASETLSLTCTVSGDSTGRCNYFWGWVRQPPGKGLEWIGSLSHCRSYYNTDWTYHNPSLKSRLTISLDTPKNQVFLRLTSVTAADTATYYCARFGGEVLVYRDWPKPAWVDLWGRGTLVVTVS VL: QSALTQPPSASGSPGQSITISCTGTSNNFVSWYQQYPGKAPKLVIYEVNKRPSGVPDRFSGSKSGSTASLTVSGLQADDEGVYYCSSLVGNWDVIFGGGTKLTVL )
Ans: > 50 µg/mL
